target: Pim-1 stably transfected into the U2OS human osteogenic sarcoma line (Homo sapiens); construct: expressed in transfected cells; host or cells: U2OS human osteogenic sarcoma line; experiment: Pim cell assay, phospho-BAD normalized against total BAD, U2OS stably transfected with Pim-1; type: cell-based; conditions: U2OS cells stably transfected with Pim-1, phospho-BAD; high dose […]; read-out: Pim1_Cell_IC50
Sequence (P11309 whole entry): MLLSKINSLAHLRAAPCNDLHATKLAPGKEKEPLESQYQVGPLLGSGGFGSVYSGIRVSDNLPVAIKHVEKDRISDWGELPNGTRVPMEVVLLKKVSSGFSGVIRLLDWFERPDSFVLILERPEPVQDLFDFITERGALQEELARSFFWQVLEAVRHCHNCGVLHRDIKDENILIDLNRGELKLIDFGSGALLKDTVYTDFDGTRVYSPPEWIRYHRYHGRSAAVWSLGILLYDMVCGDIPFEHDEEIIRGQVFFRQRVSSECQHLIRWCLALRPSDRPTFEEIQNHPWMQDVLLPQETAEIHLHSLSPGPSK

CHEM SMILES | IC50 [nM]
Fc1ccccc1-c1ccc2[nH]nc(-c3cncc(O[C@@H]4CCCNC4)n3)c2c1 | 435
COc1cccc(-c2ccc3[nH]nc(-c4cncc(N5CCC(N)CC5)n4)c3c2)c1F | 234
CCCNC(=O)c1ccc(F)c(-c2ccc3[nH]nc(-c4cncc(N5CCC(N)CC5)n4)c3c2)c1 | 1620
CN1CCOc2cc(-c3ccc4[nH]nc(-c5cncc(N6CCC(N)CC6)n5)c4c3)cnc21 | 164
NC1CCN(c2cncc(-c3n[nH]c4ccc(N5CCOCC5)cc34)n2)CC1 | 868
NC1CCN(c2cncc(-c3n[nH]c4ccc(Br)cc34)n2)CC1 | 788
COc1cc(OC)cc(-c2ccc3[nH]nc(-c4cncc(N5CCC(N)CC5)n4)c3c2)c1 | 328
COc1nccc(-c2ccc3[nH]nc(-c4cncc(O[C@@H]5CCCNC5)n4)c3c2)n1 | 1060

---

Biological target: full length recombinant Pim-1 protein (Homo sapiens)
Construct: by full length recombinant Pim-1, Pim-2, or Pim-3 protein; hexahistidine tag followed by a thrombin cleavage site (N); made in house; host or cells: Sf9 (baculovirus) or E. coli (pET28)
Sequence (P11309 whole entry): as above
Assay: Pim-1 enzyme assay (HTRF, phosphorylation of biotinylated-BAD (S112) peptide)
Format: biochemical
Details: read-out: Pim_1_IC50
Experimental: These cDNAs were used as templates in PCR reactions to produce full-length DNA clones of the PIMs. […] This step was repeated 3× and the resin was transferred to a 2.5 cm glass column. […] Fractions were analyzed by SDS-PAGE and those containing the protein of interest were pooled and concentrated. […] The final buffer conditions were as follows: 60 mM Hepes, pH 7.0, 0.05% BSA, 2 mM DTT. […] For each plate, percent of control (POC) values were calculated for each well. […]
pIC50: −log10 of the molar value.
# pIC50 listing for each entry below
MEASURE NAME: pIC50

CHEM SMILES | TARGET OR SYSTEM | EXPERIMENTAL RESULT
CN(C)C(=O)c1ccc2[nH]nc(-c3cncc(N[C@@H]4CCCNC4)n3)c2c1 | full length recombinant Pim-1 protein (Homo sapiens) | 6.08
COc1ccc(-c2ccc3[nH]cc(-c4cncc(O[C@@H]5CCCNC5)n4)c3c2)cc1 | full length recombinant Pim-1 protein (Homo sapiens) | 8.30
Cn1nccc1-c1ccc2[nH]nc(-c3cncc(O[C@@H]4CCCNC4)n3)c2c1 | full length recombinant Pim-1 protein (Homo sapiens) | 7.12
CC(C)Oc1cncc(-c2ccc3[nH]cc(-c4nnc(N5CCC[C@@H](N)C5)o4)c3c2)n1 | full length recombinant Pim-1 protein (Homo sapiens) | 7.15

---

tested on: KMS-Cell; assay: KMS cell IC50 (Table 4); assay type: cell-based; settings: KMS cells
MEASURE NAME: IC50 (µM)

MOLECULE | MEASURE NAME | EXPERIMENTAL RESULT
NS(=O)(=O)c1ccc(-c2ccc3[nH]nc(-c4cncc(O[C@H]5CNCCC56CC6)n4)c3c2)c(F)c1 | IC50 | 1.61
Fc1cccc(F)c1-c1ccc2[nH]nc(-c3cncc(CC4CCCNC4)n3)c2c1 (racemic) [Example 272, ditrifluoroacetate] | IC50 | 13
O=c1cc(-c2n[nH]c3cc(F)c(-c4c(F)cccc4F)cc23)nc(O[C@H]2CNCC[C@@H]2F)[nH]1 | IC50 | 0.633
Fc1ccnc(F)c1-c1ccc2[nH]nc(-c3cncc(O[C@H]4CNCCC45CC5)n3)c2c1 | IC50 | 1.47
